# target_or_system: AChE (Homo sapiens, UniProt P22303)
# Sequence (P22303 32-614): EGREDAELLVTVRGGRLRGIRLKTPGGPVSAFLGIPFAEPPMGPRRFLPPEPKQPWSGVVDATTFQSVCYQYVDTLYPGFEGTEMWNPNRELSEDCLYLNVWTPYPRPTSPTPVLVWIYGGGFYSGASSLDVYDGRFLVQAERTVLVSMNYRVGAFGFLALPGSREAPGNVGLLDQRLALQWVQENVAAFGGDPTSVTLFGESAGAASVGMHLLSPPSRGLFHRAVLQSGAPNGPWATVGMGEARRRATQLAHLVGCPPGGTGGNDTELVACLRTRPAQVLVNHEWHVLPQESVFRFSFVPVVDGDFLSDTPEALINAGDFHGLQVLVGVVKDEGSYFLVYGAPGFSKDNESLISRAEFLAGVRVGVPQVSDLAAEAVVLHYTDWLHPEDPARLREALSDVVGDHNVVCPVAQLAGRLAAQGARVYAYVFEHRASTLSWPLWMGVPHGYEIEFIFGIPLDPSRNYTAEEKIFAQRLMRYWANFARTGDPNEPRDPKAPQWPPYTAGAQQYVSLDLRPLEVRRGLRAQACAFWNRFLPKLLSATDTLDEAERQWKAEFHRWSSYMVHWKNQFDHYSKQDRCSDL
# assay_explanation: In vitro AChE inhibitory activity
# Type: biochemical
# conditions_used: mean ± SD (n = 3)
parameter_measured: AChE IC50

Cn1cc(-c2cc(C(=O)NN=Cc3ccccc3Cl)no2)c2ccccc21 = no potency
Cn1cc(-c2cc(C(=O)NN=Cc3cccc(Br)c3)no2)c2ccccc21 = no potency
Cn1cc(-c2cc(C(=O)NN=Cc3ccccc3F)no2)c2ccccc21 = no potency

====

# target_or_system: AChE (Homo sapiens)
parameter_measured: pKi
Field pKi (float): negative decimal logarithm of the concentration in molar.

q: Any idea what its pKi is? The compound is `COc1cccc(C=NNC(=O)c2cc(-c3cn(C)c4ccccc34)on2)c1`
a: 4.71
